biological target: T1, PSMA Fab; experiment: clonal phage ELISA; biotinylated PSMA Fab on neutravidin plate; wells pre-incubated with PSMA antigen as competitor; anti-M13-HRP detection
T1 construct: also called Anti-PSMA Fab; 006 PSMA Fab
Where no end group is shown, it is not given here.
Parameter Phage binding ELISA signal, Anti-PSMA Fab with PSMA antigen: see the listing below.
Reported property: Phage binding ELISA signal, Anti-PSMA Fab with PSMA antigen

[[record]]
binder = "VEILCKPAWMCRLD [Phage-2457]"
numeric_readout = 0.062

[[record]]
binder = "SVKMCIPEWMCENI [Phage-2452]"
numeric_readout = 0.0646

[[record]]
binder = "SVKLCIPDWMCVSE [Phage-2461]"
numeric_readout = 0.203

[[record]]
binder = "DTNWCRPAWMCAFA (cysteine pairing not given here; also: displayed as fusion to phage pIII) [Phage-2458]"
numeric_readout = 0.0649

[[record]]
binder = "WDHLCKPRWMCDGI (cysteine pairing not given here; also: displayed as fusion to phage pIII) [Phage-2451]"
numeric_readout = 0.0744

[[record]]
binder = "VETWCIPHWMCAGF (cysteine pairing not given here; also: displayed as fusion to phage pIII) [Phage-2453]"
numeric_readout = 0.0685

[[record]]
binder = "DEIWCIPRWMCDGI [Phage-2462]"
numeric_readout = 0.0834

[[record]]
binder = "DGKWCIPEWMCAQQ (cysteine pairing not given here; also: displayed as fusion to phage pIII) [Phage-2463]"
numeric_readout = 0.0837

[[record]]
binder = "GEKWCIPSWMCVAV [Phage-2456]"
numeric_readout = 0.0549

[[record]]
binder = "EMKWCTPPWMCTEL [Phage-2460]"
numeric_readout = 0.0656

[[record]]
binder = "TQMWCIPFWMCEVQ [Phage-2459]"
numeric_readout = 0.0885

[[record]]
binder = "PVKLCKPDWMCWVS [Phage-2464]"
numeric_readout = 0.105

[[record]]
binder = "VMKWCTPQWMCEHL [Phage-2465]"
numeric_readout = 0.068

[[record]]
binder = "SVHECRPLWMCQGF [Phage-2455]"
numeric_readout = 0.073

